Taken from patent US8252822B2.

tested on: KB200; test: RT-CES cell proliferation inhibition, KB200; type: cell-based; conditions: Homo sapiens; KB200, 48 hrs; read-out: IC50 (48 hr)
Endpoint Label: IC50 (nM)
State just the number; it will be interpreted in nM.

Given the entry `Br.CCOc1ccc(Nc2nc(-c3c(C)nc4sccn34)cs2)cc1` , report its measured IC50. 4.28

###

Known pIC50 of a selection of compounds
system: A549 cells; test: RT-CES cell proliferation inhibition, A549; assay type: cell-based, Human; details: Homo sapiens; A549, 24 hours after compound treatment, normalized Cell Index; read-out: IC50 (24 hr)
pIC50 here is simply -log10 of the concentration when that concentration is written in mol/L.

Br.CCOc1ccc(Nc2nc(-c3c(C)nc4sccn34)cs2)cc1 [Compound 27]
7.24

Now look at this one.
Given the entry Br.Cc1nc2sccn2c1-c1csc(Nc2ccc(Br)cc2)n1 [Compound 28] , report its measured pIC50. 7.06
